method-description: Everolimus pharmacokinetics in blood, cycle 1
Format: in vivo, human
run-parameters: human, whole blood, oral, 60 mg/m2, Cmax, Day 1; everolimus 5 mg/day, docetaxel 60 mg/m^2; n=3; mean (SD)
observable: Cmax (ng/mL)
// units = ng/mL; emit number, no label

Quick one: Cmax of CO[C@H]1C[C@@H]2CC[C@@H](C)[C@@](O)(O2)C(=O)C(=O)N2CCCC[C@H]2C(=O)O[C@H]([C@H](C)C[C@@H]2CC[C@@H](OCCO)[C@H](OC)C2)CC(=O)[C@H](C)/C=C(\C)[C@@H](O)[C@@H](OC)C(=O)[C@H](C)C[C@H](C)/C=C/C=C/C=C/1C ?
37.7

---

method-description: Docetaxel pharmacokinetics in plasma, day 1 of cycle 1
Type: in vivo
run-parameters: human, intravenous, 75 mg/m2, AUC0-∞, Day 1, everolimus 7.5 mg/day, docetaxel 75 mg/m^2, n=1
observable: AUC(0-inf)
Quote the value and follow it with the unit of measurement.

Quick one: AUC(0-inf) of CC(=O)O[C@@]12CO[C@@H]1C[C@H](O)[C@@]1(C)C(=O)[C@H](O)C3=C(C)[C@@H](OC(=O)[C@H](O)[C@@H](NC(=O)OC(C)(C)C)c4ccccc4)C[C@@](O)([C@@H](OC(=O)c4ccccc4)[C@H]21)C3(C)C ?
7.3 µM·h

---

method-description: Docetaxel pharmacokinetics in plasma, day 1 of cycle 1
Format: in vivo
run-parameters: human, intravenous, 60 mg/m2, AUC0-∞, Day 1, everolimus 5 mg/day, docetaxel 60 mg/m^2, n=1
observable: AUC(0-inf) (µM·h)
// units = µM·h; emit number, no label

Quick one: AUC(0-inf) of CC(=O)O[C@@]12CO[C@@H]1C[C@H](O)[C@@]1(C)C(=O)[C@H](O)C3=C(C)[C@@H](OC(=O)[C@H](O)[C@@H](NC(=O)OC(C)(C)C)c4ccccc4)C[C@@](O)([C@@H](OC(=O)c4ccccc4)[C@H]21)C3(C)C ?
2.08

---

method-description: Everolimus pharmacokinetics in blood, cycle 1
Type: in vivo, human
run-parameters: human, whole blood, oral, 75 mg/m2, Cmax, Day 8; everolimus 5 mg/day, docetaxel 75 mg/m^2; n=6; mean (SD)
observable: Cmax (µg/mL)
// units = µg/mL; emit number, no label

Quick one: Cmax of CO[C@H]1C[C@@H]2CC[C@@H](C)[C@@](O)(O2)C(=O)C(=O)N2CCCC[C@H]2C(=O)O[C@H]([C@H](C)C[C@@H]2CC[C@@H](OCCO)[C@H](OC)C2)CC(=O)[C@H](C)/C=C(\C)[C@@H](O)[C@@H](OC)C(=O)[C@H](C)C[C@H](C)/C=C/C=C/C=C/1C ?
0.0358

---

method-description: Everolimus pharmacokinetics in blood, cycle 1
Format: in vivo, human
run-parameters: human, whole blood, oral, 75 mg/m2, Cmax, Day 15; everolimus 5 mg/day, docetaxel 75 mg/m^2; n=6; mean (SD)
observable: Cmax
Quote the value and follow it with the unit of measurement.

Quick one: Cmax of CO[C@H]1C[C@@H]2CC[C@@H](C)[C@@](O)(O2)C(=O)C(=O)N2CCCC[C@H]2C(=O)O[C@H]([C@H](C)C[C@@H]2CC[C@@H](OCCO)[C@H](OC)C2)CC(=O)[C@H](C)/C=C(\C)[C@@H](O)[C@@H](OC)C(=O)[C@H](C)C[C@H](C)/C=C/C=C/C=C/1C ?
37.8 ng/mL
